All values here come from ChEMBL document CHEMBL4419121.

Attribute: pIC50
# System Tested: G-protein coupled receptor 6 (Homo sapiens, UniProt P46095)
# Sequence (P46095 whole entry): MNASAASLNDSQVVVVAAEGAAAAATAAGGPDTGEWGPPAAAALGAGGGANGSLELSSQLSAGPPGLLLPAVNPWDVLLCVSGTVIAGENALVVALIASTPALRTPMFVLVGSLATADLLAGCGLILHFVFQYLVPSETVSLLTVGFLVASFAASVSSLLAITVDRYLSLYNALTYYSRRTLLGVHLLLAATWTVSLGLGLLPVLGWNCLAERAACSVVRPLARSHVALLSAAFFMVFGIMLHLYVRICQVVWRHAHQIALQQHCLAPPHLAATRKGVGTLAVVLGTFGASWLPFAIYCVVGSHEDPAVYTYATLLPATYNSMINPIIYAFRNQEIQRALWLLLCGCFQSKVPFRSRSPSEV
# Measurement Protocol: Modulation activity at GPR6 receptor (unknown origin) expressed in CHO-K1 cells assessed as inhibition of constitutive cAMP activity incubated for 45 mins in presence of 300 uM IBMX by Perkin Elmer Lance HTRF Ultrac-AMP assay
# Format: functional, cell-based
# Condition Info: cho-k1
pIC50: −log10 of the molar value.

| Compound | pIC50 |
| --- | --- |
| CC(=O)O[C@H]1C[C@@H](Nc2nc3c(nc2N2CCC(Oc4ccc(F)cc4F)CC2)CCN(C(C)=O)C3)C1 | 6.95 |
| CC(=O)N1CCc2nc(N3CCC([C@@H](F)c4ccc(F)cc4F)CC3)c(NC(C)C)nc2C1 | 7.42 |
| COc1ccc(OC2CCN(c3nc4c(nc3NC(C)C)CCN(C(C)=O)C4)CC2)c(F)c1 | 7.20 |
| CC(=O)N1CCc2nc(N3CCN(Cc4ccc(F)cc4F)CC3)c(N[C@H]3C[C@H](F)C3)nc2C1 | 6.73 |
| CC(C)Nc1nc2c(nc1N1CCC(C(F)c3ccc(F)cc3F)CC1)CCN(C)C2 (stereo not given) | 7.52 |

###

Attribute: log10 IC50
# System Tested: G-protein coupled receptor 6 (Homo sapiens, UniProt P46095)
# Measurement Protocol: Modulation activity at GPR6 receptor (unknown origin) expressed in CHO-K1 cells assessed as inhibition of constitutive cAMP activity incubated for 45 mins in presence of 300 uM IBMX by Perkin Elmer Lance HTRF Ultrac-AMP assay
# Assay type: functional, cell-based
# Condition Info: cho-k1
Attribute Measured: log10 IC50 (log10 of the value in nM)

| Molecule | Measurement |
| --- | --- |
| COc1cccc(S(=O)(=O)C2CCN(c3nc4c(nc3NC(C)C)CCN(C(C)=O)C4)CC2)c1 | 2.53 |
| CC(=O)N1CCc2nc(N3CCC(Oc4ccc(F)cc4F)CC3)c(NC(C)C)nc2C1 | 1.39 |
| CC(C)Nc1nc2c(nc1N1CCC(Oc3ccc(F)cc3F)CC1)CCN(S(C)(=O)=O)C2C (stereo not given) | 1.77 |
| CC(=O)N1CCc2nc(NC(C)C)c(N3CCC(Oc4ccc(F)cc4F)CC3)nc2C1 | 1.87 |
| CC1c2nc(N3CCC(Oc4ccc(F)cc4F)CC3)c(NCC(F)F)nc2CCN1C(=O)N(C)C (stereo not given) | 1.97 |
| CCC(=O)N1CCc2nc(N3CCC(Oc4ccc(F)cc4F)CC3)c(NC(C)C)nc2C1 | 1.44 |
| CC(=O)N1CCc2nc(NC(C)C)c(N3CCC(S(=O)(=O)c4ccc(F)cc4)CC3)nc2C1 | 2.27 |
| CC(C)Nc1nc2c(nc1N1CCC(Oc3ccc(F)cc3F)CC1)CCN(C(=O)N(C)C)C2C (stereo not given) | 2.04 |
| COCC(=O)N1CCc2nc(N3CCC(Oc4ccc(F)cc4F)CC3)c(NC(C)C)nc2C1 | 1.85 |
| CC(C)Nc1nc2c(nc1N1CCC(Oc3ccc(F)cc3F)CC1)CN(C=O)CC2 | 1.64 |
| COc1ccc(OC2CCN(c3nc4c(nc3NC(C)C)CN(C)CC4)CC2)c(F)c1 | 2.15 |
| CC(=O)N1CCc2nc(NC(C)C)c(N3CCC(S(=O)(=O)c4cccc(F)c4)CC3)nc2C1 | 2.40 |
| CC[C@H](C)Nc1nc2c(nc1N1CCC(Oc3ccc(F)cc3F)CC1)CCN(C(C)=O)C2 | 1.79 |
| CC(=O)N1CCc2nc(N3CCC([C@H](F)c4ccc(F)cc4F)CC3)c(NC(C)C)nc2C1 | 1.44 |
| CC(=O)N1CCc2nc(N3CCC(Oc4ccc(F)cc4F)CC3)c(NC(C)C)nc2C1C (stereo not given) | 1.86 |

###

Attribute: pIC50
# System Tested: G-protein coupled receptor 6 (Homo sapiens, UniProt P46095)
# Measurement Protocol: Modulation activity at GPR6 receptor (unknown origin) expressed in CHO-K1 cells assessed as inhibition of constitutive cAMP activity incubated for 45 mins in presence of 300 uM IBMX by Perkin Elmer Lance HTRF Ultrac-AMP assay
# Assay type: functional, cell-based
pIC50: −log10 of the molar value.
Attribute Measured: pIC50

| Compound String | System Tested | Attribute Measured | Value Relation Sign | Measurement |
| --- | --- | --- | --- | --- |
| [2H]C([2H])([2H])C(=O)N1CCc2nc(N3CCC(Oc4ccc(F)cc4F)CC3)c(NC(C)C)nc2C1 | G-protein coupled receptor 6 (Homo sapiens, UniProt P46095) | pIC50 | = | 7.47 |
| COC[C@@H](C)Nc1nc2c(nc1N1CCC(Oc3ccc(F)cc3F)CC1)CCN(C(C)=O)C2 | G-protein coupled receptor 6 (Homo sapiens, UniProt P46095) | pIC50 | < | 6.00 |
| COC[C@H](C)Nc1nc2c(nc1N1CCC(Oc3ccc(F)cc3F)CC1)CCN(C(C)=O)C2 | G-protein coupled receptor 6 (Homo sapiens, UniProt P46095) | pIC50 | = | 6.97 |

###

Attribute: pIC50
# System Tested: G-protein coupled receptor 6 (Homo sapiens, UniProt P46095)
# Measurement Protocol: Modulation activity at GPR6 receptor (unknown origin) expressed in CHO-K1 cells assessed as inhibition of constitutive cAMP activity incubated for 45 mins in presence of 300 uM IBMX by Perkin Elmer Lance HTRF Ultrac-AMP assay
# Format: functional, cell-based
# Condition Info: cho-k1
pIC50: −log10 of the molar value.
Attribute Measured: pIC50

| Molecule | Measurement |
| --- | --- |
| CC(=O)N1CCc2nc(NC(C)C)c(N3CCC(S(=O)(=O)c4ccccc4F)CC3)nc2C1 | 6.61 |
| CCC(=O)N1CCc2nc(N3CCN(Cc4ccc(F)cc4F)CC3)c(NC(C)C)nc2C1 | 7.51 |
| CC(C)Nc1nc2c(nc1N1CCC(Oc3ccc(F)cc3F)CC1)CCN(C(=O)C(F)F)C2C (centres undefined) | 7.02 |
| CC(C)Nc1nc2c(nc1N1CCC([C@H](F)c3ccc(F)cc3F)CC1)CCN(C=O)C2 | 7.94 |
| CC(=O)N1CCc2nc(N3CCC(Oc4ccc(F)cc4F)CC3)c(N[C@H]3C[C@H](O)C3)nc2C1 | 7.11 |
| CC(C)Nc1nc2c(nc1N1CCC(Oc3ccc(F)cc3F)CC1)CCN(S(C)(=O)=O)C2 | 7.21 |
| CC(C)Nc1nc2c(nc1N1CCN(Cc3ccc(F)cc3F)CC1)CCN(S(C)(=O)=O)C2 | 7.55 |
| CC(=O)N1CCc2nc(N3CCN(Cc4ccc(F)cc4F)CC3)c(NC(C)C)nc2C1 | 7.57 |
| CC(C)Nc1nc2c(nc1N1CCC(Oc3ccc(F)cc3F)CC1)CN(C(=O)C1CC1)CC2 | 6.68 |
| CC(C)Nc1nc2c(nc1N1CCC(Oc3ccc(F)cc3F)CC1)CCN(CCF)C2 | 7.13 |
| CC(=O)O[C@H]1C[C@@H](Nc2nc3c(nc2N2CCN(Cc4ccc(F)cc4F)CC2)CCN(C(C)=O)C3)C1 | 6.66 |
| CC(=O)N1CCc2nc(N3CCC(Oc4ccc(F)cc4F)CC3)c(N[C@H]3C[C@@H](O)C3)nc2C1 | 7.21 |
| O=C(C(F)F)N1CCc2nc(NCC(F)F)c(N3CCC(Oc4ccc(F)cc4F)CC3)nc2C1 | 6.96 |
| CC(C)Nc1nc2c(nc1N1CCC(Oc3ccc(F)cc3F)CC1)CCN(C(=O)C1CC1)C2 | 6.47 |
| CC(C)Nc1nc2c(nc1N1CCC(Oc3ccc(F)cc3F)CC1)CCN(C(=O)C(F)F)C2 | 6.89 |
| CC(=O)N1CCc2nc(N3CCC(Oc4ccc(F)cc4F)CC3)c(NC3CC(F)(F)C3)nc2C1 | 7.44 |
| CC(C)Nc1nc2c(nc1N1CCC(C(F)c3ccc(F)cc3F)CC1)CN(C)CC2 (centres undefined) | 7.77 |
| CC[C@@H](C)Nc1nc2c(nc1N1CCC(Oc3ccc(F)cc3F)CC1)CCN(C(C)=O)C2 | 6.50 |
| CC(C)Nc1nc2c(nc1N1CCC(Oc3ccc(F)cc3F)CC1)CN(S(C)(=O)=O)CC2 | 7.02 |

###

Attribute: IC50
# System Tested: G-protein coupled receptor 6 (Homo sapiens, UniProt P46095)
# Measurement Protocol: Modulation activity at GPR6 receptor (unknown origin) expressed in CHO-K1 cells assessed as inhibition of constitutive cAMP activity incubated for 45 mins by Perkin Elmer Lance HTRF Ultrac-AMP assay
# Type: functional, cell-based

| Compound | Readout Units | IC50 |
| --- | --- | --- |
| CC(=O)N1CCc2nc(NC(C)C)c(N3CCC(C(F)c4ccc(F)cc4F)CC3)nc2C1 (stereo not given) | nM | 8.5 |
| CC1c2nc(NCC(F)F)c(N3CCC(Oc4ccc(F)cc4F)CC3)nc2CCN1S(C)(=O)=O (stereo not given) | nM | 87 |
| COc1ccc(OC2CCN(c3nc4c(nc3NC(C)C)CCN(C(=O)N(C)C)C4)CC2)c(F)c1 | nM | 16.6 |
| COc1ccc(OC2CCN(c3nc4c(nc3NC3CCC3)CCN(C(C)=O)C4)CC2)c(F)c1 | nM | 12 |
| CN1CCc2nc(NC3CC3)c(N3CCC([C@@H](F)c4ccc(F)cc4F)CC3)nc2C1 | nM | 26.5 |
| COc1ccc(OC2CCN(c3nc4c(nc3NC3CCC3)CN(C(=O)N(C)C)CC4)CC2)c(F)c1 | nM | 32.5 |
| CC(C)Nc1nc2c(nc1N1CCC(C(=O)c3cc(Cl)ccc3F)CC1)CCN(C(=O)N(C)C)C2 | nM | 32.7 |
| CC(=O)N1CCc2nc(NC(C)C)c(N3CCC(Oc4ccc(F)cc4F)CC3)nc2C1C (stereo not given) | nM | 88 |
| CC(C)Nc1nc2c(nc1N1CCC(C(=O)c3cc(Cl)ccc3F)CC1)CN(C)CC2 | nM | 8.8 |
| CC(=O)N1CCc2nc(N3CCC(Oc4ccc(F)cc4F)CC3)c(NCC(F)F)nc2C1C (stereo not given) | nM | 178 |
